# Test system: H3K18Ac in HB-CLS-2 cells
# TEST DETAILS: H3K18AC in-cell western (ICW) assay
# Format: cell-based
# CONDITION INFO: H3K18Ac in-cell western; read-out: CREBBP ICW IC50
pIC50: −log10 of the molar value.
QUANTITY KIND: pIC50

SMILES CODE: CCn1ncc(CN(C)C(=O)c2nc(-c3cc(C)c4[nH]c(=O)[nH]c4c3)nc3ccc(Cl)cc23)c1C
NUMERIC VALUE: 6.89
--
SMILES CODE: CCn1ncc(CN(C)C(=O)c2nc(-c3cn(CCNC)nc3C)nc3ccc(Cl)cc23)c1C
NUMERIC VALUE: 5.08
--
SMILES CODE: CCn1ncc(CN(C)C(=O)c2nc(-c3ccc(NCCNC)cn3)nc3ccc(Cl)cc23)c1C
NUMERIC VALUE: 5.57
--
SMILES CODE: CCn1ncc(CN(C)C(=O)c2nc(-c3ccc(O[C@@H]4CNC[C@H]4O)cc3Cl)nc3ccc(Cl)cc23)c1C
NUMERIC VALUE: 6.48

====

# MEASURED ON: CREBBP (1084-1701) (Homo sapiens, UniProt Q92793)
# Construct: measured in the following biochemical assay using CREBBP (1084-1701); purchased
# Sequence (Q92793 1084-1701): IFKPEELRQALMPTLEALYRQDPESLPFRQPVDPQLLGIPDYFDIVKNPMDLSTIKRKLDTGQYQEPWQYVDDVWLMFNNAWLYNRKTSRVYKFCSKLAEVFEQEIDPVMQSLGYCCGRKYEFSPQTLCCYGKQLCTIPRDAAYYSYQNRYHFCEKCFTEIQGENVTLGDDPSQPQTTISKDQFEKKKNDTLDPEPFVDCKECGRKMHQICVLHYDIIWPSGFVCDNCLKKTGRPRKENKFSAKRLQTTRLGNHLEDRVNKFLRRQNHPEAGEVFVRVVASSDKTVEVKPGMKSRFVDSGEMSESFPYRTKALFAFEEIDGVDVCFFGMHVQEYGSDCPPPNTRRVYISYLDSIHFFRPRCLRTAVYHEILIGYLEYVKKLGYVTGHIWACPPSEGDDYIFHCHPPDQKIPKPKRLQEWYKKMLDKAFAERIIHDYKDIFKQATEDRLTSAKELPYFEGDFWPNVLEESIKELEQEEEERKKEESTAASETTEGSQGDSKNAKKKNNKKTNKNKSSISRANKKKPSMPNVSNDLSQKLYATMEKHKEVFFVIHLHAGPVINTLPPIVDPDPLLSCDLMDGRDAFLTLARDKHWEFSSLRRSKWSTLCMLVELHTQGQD
# TEST DETAILS: Biochemical assay for CREBBP (1084-1701), SAMDI
# CONDITION INFO: SAMDI, read-out: CREBBP Biochemistry IC50

SMILES CODE: CCn1ncc(CN(C)C(=O)c2nc(-c3cccc(Cl)c3)nc3c(CNC)cc(Cl)cc23)c1C
IC50 [nM]: 180
--
SMILES CODE: CCn1ncc(CN(C)C(=O)c2cc(-c3ccccc3)nc3ccccc23)c1C
IC50 [nM]: 176000
--
SMILES CODE: CCn1ncc(CN(C)C(=O)c2nc(-n3cc(C)cn3)nc3ccc(Cl)cc23)c1C
IC50 [nM]: 70000
--
SMILES CODE: CCn1ncc(CN(C)C(=O)c2nc(-c3cc(C)c4nc[nH]c4c3)nc3ccc(COC)cc23)c1C
IC50 [nM]: 170
--
SMILES CODE: CCn1ncc(CN(C)C(=O)c2cc(-c3ccc(NCCN(C)C)c(OC)c3)nc3ccc(Cl)cc23)c1C
IC50 [nM]: 104
--
SMILES CODE: CNc1[nH]nc2cc(C)c(-c3nc(C(=O)N(C)Cc4cnn(CC(F)(F)F)c4C)c4cc(Cl)ccc4n3)cc12
IC50 [nM]: 25.1
--
SMILES CODE: CCn1ncc(CN(C)C(=O)c2nc(-c3ccc(OCCN)c(C)c3)nc3ccc(Cl)cc23)c1C
IC50 [nM]: 28
--
SMILES CODE: Cc1c(CN(C)C(=O)c2cc(-c3cccc(Cl)c3)nc3ccc(Cl)cc23)cnn1C(C)C
IC50 [nM]: 310

====

# Tested on: H3K18Ac in HB-CLS-2 cells
# TEST DETAILS: H3K18AC in-cell western (ICW) assay
# Type: cell-based
# CONDITION INFO: H3K18Ac in-cell western, HB-CLS-2 cells; read-out: CREBBP ICW IC50
# Source text: The following example describes methods and materials relating to an H3K18AC in-cell western assay. IC50 values (micromolar (μM)) are summarized in Table 1, Table 2, and Table 3 under the column labeled: “CREBBP ICW IC50 (micromolar).” […] METHOD: Cell Treatment, ICW for detection of H3K18Ac and DNA content. […] Plates were allowed to dry at room temperature then imaged on the Licor Odyssey CLx machine which measured integrated intensity at 700 nm and 800 nm wavelengths. […]
pIC50: −log10 of the molar value.
Each entry below carries its recorded pIC50.
QUANTITY KIND: pIC50

COMPOUND: Cc1c(CN(C)C(=O)c2nc(-c3cc(Cl)cc(CNC4CCCCC4)c3)nc3ccc(Cl)cc23)cnn1CO
MEASURED ON: H3K18Ac in HB-CLS-2 cells
QUANTITY KIND: pIC50
NUMERIC VALUE: 4.70
//
COMPOUND: CCn1ncc(CN(C)C(=O)c2nc(-c3cc(C(=O)NC)on3)nc3ccc(Cl)cc23)c1C
MEASURED ON: H3K18Ac in HB-CLS-2 cells
QUANTITY KIND: pIC50
NUMERIC VALUE: 4.70
//
COMPOUND: CCc1ncc(CN(C)C(=O)c2cc(-c3ccccc3Cl)nc3ccc(Cl)cc23)n1C
MEASURED ON: H3K18Ac in HB-CLS-2 cells
QUANTITY KIND: pIC50
NUMERIC VALUE: 5.92
//
COMPOUND: CCn1ncc(CN(C)C(=O)c2nc(-c3cccc(C#N)c3)nc3ccc(Cl)cc23)c1C
MEASURED ON: H3K18Ac in HB-CLS-2 cells
QUANTITY KIND: pIC50
NUMERIC VALUE: 5.41
//
COMPOUND: CCn1ncc(CN(C)C(=O)c2cc(-c3ccc(N(C)CCNC)c(C)n3)nc3ccc(Cl)cc23)c1C
MEASURED ON: H3K18Ac in HB-CLS-2 cells
QUANTITY KIND: pIC50
NUMERIC VALUE: 5.31
//
COMPOUND: CCn1ncc(CN(C)C(=O)c2nc(-c3cnn(CCC(O)CN4CCCC4)c3)nc3ccc(Cl)cc23)c1C (stereo not shown)
MEASURED ON: H3K18Ac in HB-CLS-2 cells
QUANTITY KIND: pIC50
NUMERIC VALUE: 4.70
//
COMPOUND: CCn1ncc(CN(C)C(=O)c2cc(-c3cn(C)c(C)n3)nc3cc(Cl)ccc23)c1C
MEASURED ON: H3K18Ac in HB-CLS-2 cells
QUANTITY KIND: pIC50
NUMERIC VALUE: 4.70
//
COMPOUND: CCn1ncc(CN(C)C(=O)c2nc(-c3cc(C(=O)NC4CC4)n(C)n3)nc3ccc(Cl)cc23)c1C
MEASURED ON: H3K18Ac in HB-CLS-2 cells
QUANTITY KIND: pIC50
NUMERIC VALUE: 6.59
//
COMPOUND: CCn1ncc(CN(C)C(=O)c2nc(-c3cc4c(N)n[nH]c4cc3C)nc3ccc(Cl)cc23)c1C
MEASURED ON: H3K18Ac in HB-CLS-2 cells
QUANTITY KIND: pIC50
NUMERIC VALUE: 7.11
//
COMPOUND: CCn1ncc(CN(C)C(=O)c2cc(-c3cnc(OCCNC)cn3)nc3ccc(Cl)cc23)c1C
MEASURED ON: H3K18Ac in HB-CLS-2 cells
QUANTITY KIND: pIC50
NUMERIC VALUE: 5.19
//
COMPOUND: Cc1c(CN(C)C(=O)c2nc(-c3cccc(Cl)c3)nc3ccc(Cl)cc23)cnn1C(C)C
MEASURED ON: H3K18Ac in HB-CLS-2 cells
QUANTITY KIND: pIC50
NUMERIC VALUE: 6.21
//
COMPOUND: CCn1ncc(CN(C)C(=O)c2cc(N3CCNCC3)nc3ccc(Cl)cc23)c1C
MEASURED ON: H3K18Ac in HB-CLS-2 cells
QUANTITY KIND: pIC50
NUMERIC VALUE: 4.70
//
COMPOUND: CCn1nc(C)c(CN(C)C(=O)c2nc(-c3ccccc3Cl)nc3ccc(Cl)cc23)c1C
MEASURED ON: H3K18Ac in HB-CLS-2 cells
QUANTITY KIND: pIC50
NUMERIC VALUE: 4.70
//
COMPOUND: CCn1ncc(CN(C)C(=O)c2nc(-c3cccc(C)c3)nc3ccc(Cl)cc23)c1C
MEASURED ON: H3K18Ac in HB-CLS-2 cells
QUANTITY KIND: pIC50
NUMERIC VALUE: 5.82
//
COMPOUND: Cc1c(CN(C)C(=O)c2nc(-c3ccccc3Cl)nc3ccc(Cl)cc23)cnn1C(C)C
MEASURED ON: H3K18Ac in HB-CLS-2 cells
QUANTITY KIND: pIC50
NUMERIC VALUE: 6.12
//
COMPOUND: CCn1ncc(CN(C)C(=O)c2cc(-c3ccc(OCCNC)c(Cl)c3)nc3ccc(P(C)(C)=O)cc23)c1C
MEASURED ON: H3K18Ac in HB-CLS-2 cells
QUANTITY KIND: pIC50
NUMERIC VALUE: 4.74
//
COMPOUND: CCn1ncc(CN(C)C(=O)c2cc(-c3ccc(NCC(=O)NC)c(C)n3)nc3ccc(Cl)cc23)c1C
MEASURED ON: H3K18Ac in HB-CLS-2 cells
QUANTITY KIND: pIC50
NUMERIC VALUE: 6.57
//
COMPOUND: CCn1ncc(CN(C)C(=O)c2cc(-c3ccc(NC4CNC4)c(C)n3)nc3ccc(Cl)cc23)c1C
MEASURED ON: H3K18Ac in HB-CLS-2 cells
QUANTITY KIND: pIC50
NUMERIC VALUE: 7.09
//
COMPOUND: CCn1ncc(CN(C)C(=O)c2nc(-c3cn(CCCNC)cn3)nc3ccc(Cl)cc23)c1C
MEASURED ON: H3K18Ac in HB-CLS-2 cells
QUANTITY KIND: pIC50
NUMERIC VALUE: 4.70
//
COMPOUND: CCn1ncc(CN(C)C(=O)c2nc(-c3cc(Cl)cc(OCCCN(C)C(=O)OC(C)(C)C)c3)nc3ccc(Cl)cc23)c1C
MEASURED ON: H3K18Ac in HB-CLS-2 cells
QUANTITY KIND: pIC50
NUMERIC VALUE: 4.70
//
COMPOUND: CCn1ncc(CN(C)C(=O)c2nc(-c3cn[nH]c3)nc3ccc(Cl)cc23)c1C
MEASURED ON: H3K18Ac in HB-CLS-2 cells
QUANTITY KIND: pIC50
NUMERIC VALUE: 4.89
//
COMPOUND: CCn1ncc(CN(C)C(=O)c2nc(-c3cc(C(=O)NC)nn3C)nc3ccc(Cl)cc23)c1C
MEASURED ON: H3K18Ac in HB-CLS-2 cells
QUANTITY KIND: pIC50
NUMERIC VALUE: 5.49
//
COMPOUND: CCn1ncc(CN(C)C(=O)c2nc(-c3cscn3)nc3ccc(Cl)cc23)c1C
MEASURED ON: H3K18Ac in HB-CLS-2 cells
QUANTITY KIND: pIC50
NUMERIC VALUE: 5.72
//
COMPOUND: CCc1ccc2nc(-c3cccc(Cl)c3)nc(C(=O)N(C)Cc3cnn(CC)c3C)c2c1
MEASURED ON: H3K18Ac in HB-CLS-2 cells
QUANTITY KIND: pIC50
NUMERIC VALUE: 6.32
//
COMPOUND: CCn1ncc(CN(C)C(=O)c2nc(-c3cc(NC(=O)CNC)cc(OC)c3)nc3ccc(Cl)cc23)c1C
MEASURED ON: H3K18Ac in HB-CLS-2 cells
QUANTITY KIND: pIC50
NUMERIC VALUE: 6.89

Values from patent US20220144812A1
